Target: PARP1 (Homo sapiens (Human))
Sequence (P09874 whole entry): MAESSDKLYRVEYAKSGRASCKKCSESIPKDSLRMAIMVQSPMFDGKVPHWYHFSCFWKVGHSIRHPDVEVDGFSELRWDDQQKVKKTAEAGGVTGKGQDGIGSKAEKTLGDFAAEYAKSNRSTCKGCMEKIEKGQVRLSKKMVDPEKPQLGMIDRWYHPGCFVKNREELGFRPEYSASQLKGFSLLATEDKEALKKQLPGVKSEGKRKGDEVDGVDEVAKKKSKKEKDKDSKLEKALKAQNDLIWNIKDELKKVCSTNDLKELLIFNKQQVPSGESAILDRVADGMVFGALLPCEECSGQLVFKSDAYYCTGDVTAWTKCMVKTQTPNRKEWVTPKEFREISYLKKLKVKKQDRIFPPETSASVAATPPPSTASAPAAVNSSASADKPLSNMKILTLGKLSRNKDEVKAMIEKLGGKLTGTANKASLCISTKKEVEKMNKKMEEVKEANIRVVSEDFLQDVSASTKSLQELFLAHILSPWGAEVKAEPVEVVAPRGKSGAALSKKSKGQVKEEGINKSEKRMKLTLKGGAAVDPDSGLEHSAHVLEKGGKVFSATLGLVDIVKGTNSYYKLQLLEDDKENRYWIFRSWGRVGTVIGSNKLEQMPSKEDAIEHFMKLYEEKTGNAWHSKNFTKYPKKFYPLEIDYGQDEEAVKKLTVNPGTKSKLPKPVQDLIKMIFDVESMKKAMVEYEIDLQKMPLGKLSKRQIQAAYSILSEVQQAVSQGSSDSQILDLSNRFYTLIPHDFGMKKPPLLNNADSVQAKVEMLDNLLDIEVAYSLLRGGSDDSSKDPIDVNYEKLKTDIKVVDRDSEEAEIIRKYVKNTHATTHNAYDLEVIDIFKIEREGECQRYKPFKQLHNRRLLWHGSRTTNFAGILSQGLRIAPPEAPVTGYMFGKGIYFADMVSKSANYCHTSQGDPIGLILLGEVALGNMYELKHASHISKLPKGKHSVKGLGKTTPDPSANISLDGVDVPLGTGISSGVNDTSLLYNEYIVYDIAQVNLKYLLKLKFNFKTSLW
pIC50: −log10 of the molar value.
measure_name: pIC50

[
  {
    "compound": "CCc1cc2ncc([S@](=N)(=O)C3CCN(c4ccc(C(=O)NC)nc4)CC3)cc2[nH]c1=O (single isomer, unassigned) [Compound 2.7]",
    "numeric_value": 8.16
  }
]

---

Reported IC50 values, PARP2 (Homo sapiens (Human), UniProt Q9UGN5).

[
  {
    "compound": "CCc1cc2ncc(S(=O)(=O)N3CCN(c4ccc(F)cc4F)CC3)cc2[nH]c1=O",
    "IC50": "> 10 µM"
  },
  {
    "compound": "CCc1cc2ncc([S@@](=N)(=O)C3CCN(c4ccc(C(=O)NC)nc4)CC3)cc2[nH]c1=O (single isomer, unassigned)",
    "IC50": "> 10 µM"
  }
]

Every entry's value here was drawn from patent US20240228486A1.
